System: CCRF-CEM leukemia
Test: NCI tumour cell line growth inhibition, 48 h; in the data active means GI50 below about 0.43 µM; inactive means the rest
// classify into class 1 for active, class 0 for inactive

Worked cases, answers included:
compound	class
COc1ccc2nc3ccccc3c(NCCNCCO)c2c1	class 0
S=c1ssnc1-c1cc2ccccc2o1	class 0
CCn1cc(C(=O)O)c(=O)c2cc(F)c(N3CCN(S(=O)(=O)c4ccc(Cl)cc4Cl)CC3)cc21	class 0
Clc1ccc2c(NCCNc3nc(N4CCOCC4)nc4ccccc34)ccnc2c1	class 0
CC1(C)N=C(N)N=C(N)N1c1ccc(CCCC(=O)Nc2ccc(S(=O)(=O)F)cc2)cc1	class 0

Input: Recorded test outcome, item Nc1ncn([C@H]2CC(O)[C@@H](CO)S2)c(=O)n1 (some centres not stated)
Output: class 0

Input: Recorded test outcome, item COc1cc2ncn(-c3cc(OCc4ccccc4C(F)(F)F)c(C(N)=O)s3)c2cc1OC
Output: class 1

----------
Measured TGI, listed per entry.
Test system: U251 CNS
Assay: NCI tumour cell line growth inhibition, 48 h

compound-structure-string	TGI
CCOC(=O)c1ccc(N(CCOS(C)(=O)=O)CCOS(C)(=O)=O)cc1	> 100 µM
Cc1cc(N(CCC#N)CCC#N)ccc1/C=C(\NC(=O)/C=C/c1ccccc1)C(=O)Nc1ccccc1Cl	> 100 µM
COc1ccc(OC)c2c(C(C)=O)cccc12	> 100 µM
CCOC(=O)C1=C(O)CC(=O)N=C1N1CCCC1	> 100 µM
Cc1ccc(/C=c2\cc3oc(=O)c4cccc(c4-3)c2=O)cc1	> 100 µM

Consider now this further molecule.
Input: Dear colleague, I am looking for the recorded TGI of the following molecule: O=[N+]([O-])c1ccccc1N=Nc1c(O)[nH]c2c(Cl)cccc12
Output: > 51.5 µM

----------
Test system: NCI-H460 lung
Experiment: NCI tumour cell line growth inhibition, 48 h
recorded-endpoint: TGI

Example entries and their recorded answers appear below.
compound	TGI
CC1(C)N=C(N)N=C(N)N1c1ccc(CCCC(=O)Nc2ccc(S(=O)(=O)F)cc2)cc1	> 100 µM
C[N+]1(C)CCCC(C#N)(c2ccccc2)CC1 (stereo not drawn)	> 100 µM
COc1cccc(NC(=O)CC(=O)NN)c1	> 100 µM
Nc1ccc(CC[C@H]2CCC/C=C/[C@@H]3C[C@H](O)C[C@H]3[C@H](O)/C=C/C(=O)O2)cc1	> 100 µM
CC(=O)c1csc2c1C(=O)c1ccccc1C2=O	5 µM

Input: Record lookup: for NCI-H460 lung, what TGI belongs to COC(=O)C1=NC(=S)NC(c2ccccc2)C1c1nc2ccccc2o1 (stereo not drawn) ?
Output: > 50 µM

Input: Record lookup: for NCI-H460 lung, what TGI belongs to Cc1ccc(C)c2c1C1CCCCC3(OCCCO3)C21O (stereo not drawn) ?
Output: > 100 µM

Input: Record lookup: for NCI-H460 lung, what TGI belongs to Cc1ccc(-c2nc(NCCOCCOCCN)nc(N3CCN(c4ccccn4)CC3)n2)cc1 ?
Output: 29.9 µM

Input: Record lookup: for NCI-H460 lung, what TGI belongs to CC(C)c1ccc(O)c(Cc2cc(C(C)C)cc(Cc3cc(C(C)C)ccc3O)c2O)c1 ?
Output: 3.45 µM

Input: Record lookup: for NCI-H460 lung, what TGI belongs to ClC1=NSSC1(Cl)Cl ?
Output: > 100 µM

Input: Record lookup: for NCI-H460 lung, what TGI belongs to O=c1[nH]c2cc(Cl)ccc2nc1/C(=N\Nc1ccccc1)C(O)c1ccc2c(c1)OCO2 (stereo not drawn) ?
Output: > 100 µM

Input: Record lookup: for NCI-H460 lung, what TGI belongs to CC(C)(O)C1COC2=C1C(=O)c1ccccc1C2=O (stereo not drawn) ?
Output: > 100 µM

Input: Record lookup: for NCI-H460 lung, what TGI belongs to Cc1cc(N2CCC(N3CCCC3)CC2)nc(/N=C(\N)Nc2ccc(Cl)c(Cl)c2)n1 ?
Output: 3.67 µM

Input: Record lookup: for NCI-H460 lung, what TGI belongs to COC(=O)c1ccccc1CC1Cc2c(C)ccc(C)c2C1=O (stereo not drawn) ?
Output: > 100 µM

Input: Record lookup: for NCI-H460 lung, what TGI belongs to CSc1c(C(C)=O)c(O)n(-c2ccc(C)cc2)c(=O)c1C#N ?
Output: > 100 µM

Input: Record lookup: for NCI-H460 lung, what TGI belongs to COc1cccc(C2CC(=O)Nc3c2c(C)nn3-c2nc3ccccc3[nH]2)c1OC (stereo not drawn) ?
Output: 10.2 µM

Input: Record lookup: for NCI-H460 lung, what TGI belongs to O=C(C[N+]12CN3CN(CN(C3)C1)C2)c1ccc(-c2ccccc2)cc1 ?
Output: 30.9 µM

Input: Record lookup: for NCI-H460 lung, what TGI belongs to NC1=Nc2cc(C(F)(F)F)ccc2Sc2nc3ccccc3n21 ?
Output: > 100 µM

----------
Measured TGI, listed per entry.
Test system: 786-0 renal
Assay: NCI tumour cell line growth inhibition, 48 h

compound-structure-string	TGI
Cc1cc(N(CCC#N)CCC#N)ccc1/C=C(\NC(=O)/C=C/c1ccccc1)C(=O)Nc1ccccc1Cl	> 100 µM
CO[C@@]12C[C@H](CNC(=O)c3ccc[nH]3)O[C@@H]1NC(=O)N2	> 100 µM

Consider now this further compound.
Input: Dear colleague, I am looking for the recorded TGI of the following compound: CCSC[C@@H]1C[C@](O)(c2ccccc2)[C@@H](c2ccccc2)O1
Output: > 100 µM

----------
System: SK-OV-3 ovarian
Assay: NCI tumour cell line growth inhibition, 48 h
Measured TGI, listed per entry.

compound	TGI
COc1ccc(/C=C/C(=O)c2c(-c3ccccc3)nn(C)c(=O)c2N2CC2C)cc1 (stereo unspecified)	71.3 µM
COC(=O)c1ccccc1C1CN=NC12Cc1ccc(C)cc1C2=O (stereo unspecified)	> 100 µM
CCOc1ccc(C2=NN(CC)C(=O)C(C3C(=O)N(c4ccccc4)N=C3C)C2)cc1 (stereo unspecified)	> 100 µM
CSc1cc(Cl)c(C)cc1S(=O)(=O)NC(=O)NNc1ccc(C)cc1	> 100 µM
CO[C@@]12C[C@H](CNC(=O)c3ccc[nH]3)O[C@@H]1NC(=O)N2	> 100 µM

Consider now this further compound.
Input: Dear colleague, I am looking for the recorded TGI of the following compound: O=C(Nc1ccn(C2CC(O)C(COC(c3ccccc3)(c3ccccc3)c3ccccc3)O2)c(=O)n1)c1ccccc1 (stereo unspecified)
Output: 28.3 µM

----------
Measured TGI, listed per entry.
Tested on: MOLT-4 leukemia
Assay: NCI tumour cell line growth inhibition, 48 h

Example entries and their recorded answers appear below.
compound-structure-string	TGI
O=P(CN1CCOCC1)(c1ccccc1)c1ccccc1	> 100 µM
Cc1ccc(C2=CC(=O)/C(=C\C(=O)c3ccc(Br)cc3)O2)c(C)c1	> 47.9 µM
CC(C)(C)OC(=O)Cn1ncn(NC(=O)Cc2ccccc2)c1=S	> 10 µM
CNC(=O)OCc1cnc([N+](=O)[O-])n1C	> 100 µM
Cc1cc(N(CCC#N)CCC#N)ccc1/C=C(\NC(=O)/C=C/c1ccccc1)C(=O)Nc1ccccc1Cl	> 100 µM

Input: Record lookup: for MOLT-4 leukemia, what TGI belongs to Nc1cccc(-c2cc(=O)c3cc4c(cc3[nH]2)OCO4)c1 ?
Output: > 100 µM

----------
Measured TGI, listed per entry.
System: KM20L2 colon
Assay: NCI tumour cell line growth inhibition, 48 h

compound	TGI
COC(=O)Cc1cc(=O)n2c3ccccc3n(C)c2c1C#N	> 100 µM
Cc1ccc(C)c2c1C1CCCCC3(OCCCO3)C21O (centres undefined)	> 100 µM
Cc1c2cc[n+](Cc3ccc(I)cc3)cc2c(C)c2c1[nH]c1ccccc12	> 15.4 µM

Input: Dear colleague, I am looking for the recorded TGI of the following compound: CCCC1C[C@H]2CCCCN2[C@H]2CCCN12 (some centres undefined)
Output: > 100 µM

----------
Measured GI50, listed per entry.
Tested on: 786-0 renal
Assay: NCI tumour cell line growth inhibition, 48 h

Example entries and their recorded answers appear below.
compound-structure-string	GI50
CCCN1C(=O)/C(=C/c2ccc(SC(F)(F)F)cc2)SC1=Nc1ccc(OC)cc1	9.56 µM
COC(=O)c1c(C)nc(C)c2c1C(=O)C(Br)=C(NCc1ccccc1)C2=O	4.65 µM
Cc1cc(NC(=O)NCc2ccc(N3C(N)=NC(N)=NC3(C)C)cc2)ccc1S(=O)(=O)F	5.21 µM

Consider now this further molecule.
Input: Dear colleague, I am looking for the recorded GI50 of the following molecule: CN(C)CCCN1c2ccccc2Sc2ccc(C(F)(F)F)cc21
Output: 1.63 µM

----------
Tested on: IGROV1 ovarian
Test: NCI tumour cell line growth inhibition, 48 h
Measured TGI, listed per entry.

molecule	TGI
ClC1=NSSC1(Cl)Cl	> 100 µM
CC1(C)N=C(C(N)=O)c2[nH]cnc2N1	> 100 µM
Cc1nc2ccc(NCCN(C)C)c3c(=O)c4ccccc4n1c23	16.6 µM
COc1cc(N=Nc2cc(Cc3ccc(N(C)C)cc3)c(N)cc2N(C)C)c2ncccc2c1	1.57 µM
COc1ccc(-c2nsc3c2NC(=O)CC3c2ccsc2)cc1 (stereo not drawn)	> 100 µM
CCCCCCCCCCCCCCCCCc1nc(Cl)nc(Cl)c1Cl	> 100 µM
N#C[S-].[La+3].c1ccc(-c2ccccn2)nc1.c1ccc(-c2ccccn2)nc1.c1ccc(-c2ccccn2)nc1	60.5 µM
O=C1CCC(c2ccccc2)=NN1c1nc2ccccc2s1	> 100 µM
Cc1cc(N(CCC#N)CCC#N)ccc1/C=C(\NC(=O)/C=C/c1ccccc1)C(=O)Nc1ccccc1Cl	> 100 µM
COC1C(OC(=O)c2ccc(C)[nH]2)C(O)C(Oc2ccc3c(O)c(NC(=O)c4ccc(O)c(CC=C(C)C)c4)c(=O)oc3c2Cl)OC1(C)C (stereo not drawn)	39.2 µM

Input: Dear colleague, I am looking for the recorded TGI of the following molecule: Clc1ccc2c(NCCNc3nc(N4CCOCC4)nc4ccccc34)ccnc2c1
Output: 10.2 µM

Input: Dear colleague, I am looking for the recorded TGI of the following molecule: O=c1cc(-c2ccccc2)oc2ccc(Cl)cc12
Output: > 100 µM

Input: Dear colleague, I am looking for the recorded TGI of the following molecule: NCCCN(CCCCN(CCCN)CCCc1ccccc1)CCCc1ccccc1
Output: 8.88 µM

Input: Dear colleague, I am looking for the recorded TGI of the following molecule: CCCS(=O)(=O)Nc1ccc(F)c(C(=O)c2c[nH]c3ncc(-c4ccc(OCCCC5CCCCN5)nc4)cc23)c1F (stereo not drawn)
Output: > 100 µM

Input: Dear colleague, I am looking for the recorded TGI of the following molecule: CN(C)S(=O)(=O)c1ccc2[nH]c(O)c(C3=Nc4ccccc4C3=O)c2c1
Output: 27.4 µM

Input: Dear colleague, I am looking for the recorded TGI of the following molecule: OCCc1ccsc1-c1sc(-c2cc(CCO)c(-c3sc(-c4cc(CCO)c(-c5sccc5CCO)s4)cc3CCO)s2)cc1CCO
Output: 2.6 µM

Input: Dear colleague, I am looking for the recorded TGI of the following molecule: C=C1OC2OC(C)C(NC(=O)OCC(Cl)(Cl)Cl)C(OC(C)=O)C2O1 (stereo not drawn)
Output: > 100 µM

Input: Dear colleague, I am looking for the recorded TGI of the following molecule: Cc1sc(/N=C/C2=C(O)CC(C)(C)CC2=O)nc1-c1ccccc1
Output: > 100 µM

Input: Dear colleague, I am looking for the recorded TGI of the following molecule: Nc1ncn([C@H]2CC(O)[C@@H](CO)S2)c(=O)n1 (stereo partly drawn)
Output: > 100 µM

Input: Dear colleague, I am looking for the recorded TGI of the following molecule: CC(C)c1cc(=O)[nH]c2cc(N)ccc12
Output: > 100 µM

Input: Dear colleague, I am looking for the recorded TGI of the following molecule: COc1ccc(/C=C/C(=O)c2c(-c3ccccc3)nn(C)c(=O)c2N2CC2C)cc1 (stereo not drawn)
Output: > 100 µM

Input: Dear colleague, I am looking for the recorded TGI of the following molecule: Cc1ccc(/C=c2\cc3oc(=O)c4cccc(c4-3)c2=O)cc1
Output: > 100 µM

Input: Dear colleague, I am looking for the recorded TGI of the following molecule: CCCCNc1ncnc2c1cnn2-c1ccccc1
Output: > 100 µM

Input: Dear colleague, I am looking for the recorded TGI of the following molecule: Cc1ccc(NCCNCC(C)(C)O)c2c(=O)c3ccc(Cl)cc3sc12
Output: 2.96 µM

Input: Dear colleague, I am looking for the recorded TGI of the following molecule: CCOC(=O)[C@@]12C[C@](/C=C/OC)(O[Si](C)(C)C)[C@@]13c1cc(OC)c(OC)cc1CCN3C(=O)C2=O
Output: > 100 µM

Input: Dear colleague, I am looking for the recorded TGI of the following molecule: NC(Cc1ccccc1)C(=O)OCN1C(=O)C2C3C=CC(C2C1=O)C1C(=O)N(COC(=O)C(N)Cc2ccccc2)C(=O)C31 (stereo not drawn)
Output: > 100 µM

Input: Dear colleague, I am looking for the recorded TGI of the following molecule: FC(F)(F)c1ccccc1C1SCc2nc3ccccc3n21 (stereo not drawn)
Output: > 100 µM

Input: Dear colleague, I am looking for the recorded TGI of the following molecule: CN(C(=O)Cc1ccccc1)n1cn[n+](CC(=O)OC(C)(C)C)c1
Output: > 10 µM
